Each recorded value in this set is attributed to ChEMBL document CHEMBL5154832.

- tested_on: Threonine--tRNA ligase (Salmonella enterica)
- test_method_notes: Binding affinity to full length recombinant salmonella enterica threonyl-tRNA synthetase assessed as dissociation constant in presence of tRNA Threonine by isothermal titration calorimetry assay
quantity: Kd (nM)
Return type: number; implicit unit nM.

Query (compound): C[C@@H](O)[C@H](N)C(=O)N[C@@H](CNC(=O)CCn1cnc2cc(Cl)c(Cl)cc2c1=O)c1cccc(-c2ccc3c(c2)CNC3=O)c1 ; field requested: Kd 166

----------
- tested_on: Threonine--tRNA ligase (Salmonella enterica)
- Sequence (whole entry): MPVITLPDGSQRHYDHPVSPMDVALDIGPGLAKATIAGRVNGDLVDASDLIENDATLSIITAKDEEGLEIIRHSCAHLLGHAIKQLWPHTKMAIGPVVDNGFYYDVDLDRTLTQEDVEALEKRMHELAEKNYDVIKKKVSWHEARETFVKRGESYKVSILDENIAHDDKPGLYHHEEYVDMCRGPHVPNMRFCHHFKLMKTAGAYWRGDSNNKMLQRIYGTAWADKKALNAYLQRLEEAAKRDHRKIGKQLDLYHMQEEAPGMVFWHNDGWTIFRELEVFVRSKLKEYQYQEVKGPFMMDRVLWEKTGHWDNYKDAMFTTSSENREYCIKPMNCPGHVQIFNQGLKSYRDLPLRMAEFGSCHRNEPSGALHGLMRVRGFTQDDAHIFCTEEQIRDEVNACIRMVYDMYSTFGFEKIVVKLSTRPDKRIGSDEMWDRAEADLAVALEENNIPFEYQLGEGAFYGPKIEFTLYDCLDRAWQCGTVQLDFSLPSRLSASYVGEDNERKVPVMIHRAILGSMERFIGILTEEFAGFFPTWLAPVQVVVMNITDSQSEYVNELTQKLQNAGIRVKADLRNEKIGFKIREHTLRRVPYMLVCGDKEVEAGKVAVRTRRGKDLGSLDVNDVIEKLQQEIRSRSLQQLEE
- test_method_notes: Inhibition of recombinant salmonella enterica threonyl-tRNA synthetase assessed as reduction in enzyme activity at 10 uM incubated for 20 min by Kinase Glo luminescence assay relative to control
quantity: inhibition

Query (molecule): C[C@@H](O)[C@H](N)C(=O)N[C@@H](CNC(=O)CCn1cnc2cc(Br)c(Cl)cc2c1=O)c1cccc(-c2ccc3c(N)ncnc3c2)c1 ; field requested: inhibition > 99%

Query (molecule): C[C@@H](O)[C@H](N)C(=O)N[C@@H](CNC(=O)CCn1cnc2cc(Br)c(Cl)cc2c1=O)c1cccc(-c2ccc3c(c2)CNC3=O)c1 ; field requested: inhibition > 99%

Query (molecule): C[C@@H](O)[C@H](N)C(=O)NS(=O)(=O)c1cccc(-c2ccc3[nH]ncc3c2)c1 ; field requested: inhibition > 99%

----------
- tested_on: UniProt A0A3F3IEK2
- Sequence (A0A3F3IEK2 whole entry): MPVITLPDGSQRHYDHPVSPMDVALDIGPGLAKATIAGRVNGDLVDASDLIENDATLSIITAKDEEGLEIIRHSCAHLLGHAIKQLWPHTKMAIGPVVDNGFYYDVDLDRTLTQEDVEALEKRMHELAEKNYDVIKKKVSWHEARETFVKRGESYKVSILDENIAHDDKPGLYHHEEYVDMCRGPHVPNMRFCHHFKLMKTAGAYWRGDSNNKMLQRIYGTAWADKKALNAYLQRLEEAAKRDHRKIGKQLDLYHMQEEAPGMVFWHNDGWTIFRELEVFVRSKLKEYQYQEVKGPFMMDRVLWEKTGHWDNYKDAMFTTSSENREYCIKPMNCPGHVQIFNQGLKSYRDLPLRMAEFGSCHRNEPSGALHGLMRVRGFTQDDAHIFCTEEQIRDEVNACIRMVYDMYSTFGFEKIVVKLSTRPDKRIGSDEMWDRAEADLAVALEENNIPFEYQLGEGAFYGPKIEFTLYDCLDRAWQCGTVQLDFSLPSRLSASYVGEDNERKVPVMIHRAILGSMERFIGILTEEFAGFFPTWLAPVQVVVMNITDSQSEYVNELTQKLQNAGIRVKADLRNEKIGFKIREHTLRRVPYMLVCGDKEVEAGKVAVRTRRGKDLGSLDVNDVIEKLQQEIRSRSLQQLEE
- test_method_notes: Inhibition of recombinant salmonella enterica threonyl-tRNA synthetase assessed as reduction in enzyme activity incubated for 20 min by Kinase Glo luminescence assay
quantity: IC50 (nM)

[[record]]
smiles_notation = "C[C@@H](O)[C@H](N)C(=O)N[C@@H](CNC(=O)CCn1cnc2cc(Br)c(Cl)cc2c1=O)c1cccc(-c2ccc3c(N)ncnc3c2)c1"
tested_on = "UniProt A0A3F3IEK2"
readout_number = 480

[[record]]
smiles_notation = "C[C@@H](O)[C@H](N)C(=O)N(CCCC(=O)NCCn1cnc2cc(Br)c(Cl)cc2c1=O)Cc1cccc(-c2ccc3c(c2)CNC3=O)c1"
tested_on = "UniProt A0A3F3IEK2"
readout_number = 2990

[[record]]
smiles_notation = "C[C@@H](O)[C@H](N)C(=O)N[C@@H](CNC(=O)CCn1cnc2cc(Br)c(Cl)cc2c1=O)c1cccc(-c2ccc3c(c2)CNC3=O)c1"
tested_on = "UniProt A0A3F3IEK2"
readout_number = 103


[a] C[C@@H](O)[C@H](N)C(=O)N[C@@H](CNC(=O)CCn1cnc2cc(Br)c(Cl)cc2c1=O)c1cccc(-c2ccccc2)c1
[b] C[C@@H](O)[C@H](N)C(=O)NS(=O)(=O)c1cccc(-c2ccc3[nH]ncc3c2)c1
Smaller IC50 value, a vs b ? Selection: enter the item's label. b

----------
Each item that follows carries a reported inhibition.
- tested_on: Threonine--tRNA ligase (Salmonella enterica) (UniProt A0A3F3IEK2)
- test_method_notes: Inhibition of recombinant salmonella enterica threonyl-tRNA synthetase assessed as reduction in enzyme activity at 10 uM incubated for 20 min by Kinase Glo luminescence assay relative to control

Past entries and their recorded results:
[[record]]
smiles_notation = "C[C@@H](O)[C@H](N)C(=O)N[C@@H](CNC(=O)CCn1cnc2cc(Cl)c(Cl)cc2c1=O)c1cccc(-c2ccc3c(c2)CNC3=O)c1"
result = "> 99%"

[[record]]
smiles_notation = "C[C@@H](O)[C@H](N)C(=O)N[C@@H](CNC(=O)CCn1cnc2cc(Cl)c(Cl)cc2c1=O)c1cccc(-c2ccccc2)c1"
result = "> 99%"

[[record]]
smiles_notation = "C[C@@H](O)[C@H](N)C(=O)N[C@@H](CNC(=O)CCn1cnc2cc(Br)c(Cl)cc2c1=O)c1cccc(-c2ccc3[nH]ncc3c2)c1"
result = "> 99%"


Here is the next item to consider.
Param readout= inhibition; system= Threonine--tRNA ligase (Salmonella enterica) (UniProt A0A3F3IEK2); entry= C[C@@H](O)[C@H](N)C(=O)N(CCCCCCn1cnc2cc(Br)c(Cl)cc2c1=O)Cc1cccc(-c2ccc3c(c2)CNC3=O)c1 ; returns value. 75%

----------
Each item that follows carries a reported MIC.
- Test system: Enterococcus faecalis
- test_method_notes: Antibacterial activity against Enterococcus faecalis ATCC 29212 strain assessed as inhibition of bacterial growth incubated for 8 hrs by CLSI protocol based microdilution assay
- Assay type: functional

Query (compound): C[C@@H](O)[C@H](N)C(=O)NS(=O)(=O)c1cccc(-c2ccc3[nH]ncc3c2)c1 ; field requested: MIC ≥ 128 µg/mL

Query (compound): C[C@@H](O)[C@H](N)C(=O)N[C@@H](CNC(=O)CCn1cnc2cc(Br)c(Cl)cc2c1=O)c1cccc(-c2ccc3c(c2)CNC3=O)c1 ; field requested: MIC ≥ 128 µg/mL

Query (compound): C[C@@H](O)[C@H](N)C(=O)N[C@@H](CNC(=O)CCn1cnc2cc(Br)c(Cl)cc2c1=O)c1cccc(-c2ccc3c(N)ncnc3c2)c1 ; field requested: MIC ≥ 128 µg/mL

Query (compound): CN[C@H](CC(C)C)C(=O)N[C@H]1C(=O)N[C@@H](CC(N)=O)C(=O)N[C@H]2C(=O)N[C@H]3C(=O)N[C@H](C(=O)N[C@H](C(=O)O)c4cc(O)cc(O)c4-c4cc3ccc4O)[C@H](O)c3ccc(c(Cl)c3)Oc3cc2cc(c3O[C@@H]2O[C@H](CO)[C@@H](O)[C@H](O)[C@H]2O[C@H]2C[C@](C)(N)[C@H](O)[C@H](C)O2)Oc2ccc(cc2Cl)[C@H]1O ; field requested: MIC 2 µg/mL
